Provide the reported kon of each item.
Biological target: T1, human C1s (human, UniProt P09871 16-688)
T1 construct: Analyte in the Biacore assays; also called hC1s; serum-derived human C1s (CompTech)
T1 sequence: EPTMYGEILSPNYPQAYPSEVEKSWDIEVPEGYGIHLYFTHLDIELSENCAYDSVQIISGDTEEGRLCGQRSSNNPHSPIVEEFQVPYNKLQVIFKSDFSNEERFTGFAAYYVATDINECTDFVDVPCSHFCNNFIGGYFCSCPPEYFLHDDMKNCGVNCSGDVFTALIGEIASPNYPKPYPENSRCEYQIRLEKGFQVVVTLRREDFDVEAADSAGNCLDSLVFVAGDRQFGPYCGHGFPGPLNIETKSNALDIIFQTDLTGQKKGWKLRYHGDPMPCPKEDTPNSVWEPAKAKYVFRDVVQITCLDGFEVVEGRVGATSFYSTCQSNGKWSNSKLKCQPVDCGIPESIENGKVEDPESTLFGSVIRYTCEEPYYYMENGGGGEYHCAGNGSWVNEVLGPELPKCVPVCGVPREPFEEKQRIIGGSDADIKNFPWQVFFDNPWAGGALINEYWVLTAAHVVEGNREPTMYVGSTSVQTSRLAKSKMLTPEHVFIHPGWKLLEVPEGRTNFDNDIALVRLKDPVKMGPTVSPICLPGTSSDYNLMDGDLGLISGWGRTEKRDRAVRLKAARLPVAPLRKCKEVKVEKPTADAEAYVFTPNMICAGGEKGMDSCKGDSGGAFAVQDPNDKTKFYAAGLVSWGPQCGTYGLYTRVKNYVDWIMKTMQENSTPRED
Test: SPR (Biacore T200, 37C), Ab captured on protein A/G; pH 5.8, 3 uM Ca
One number for each entry, in M⁻¹ s⁻¹.

Worked cases, answers included:
# binder, unit-annotation, kon
rows = [
    ("C1_IPN92H0159-SG4GK/IPN93L0024-SK1 (antibody, human IgG4 S228P, kappa, name in Kabat numbering, V domains shown, Substitutions from IPN009VH2, Kabat numbering; also called IPN92H0159/IPN93L0024) VH: EVMLVESGGGLVKPGGSLRLSCAASGFTFSNYAMSWVRQAPGKGLEWVATISSGGSHTYDLDSVKGRFTISRDNSKDTLYLQMNSLRAEDTALYYCARLFTGHAMDYWGQGTLVTVSS VL: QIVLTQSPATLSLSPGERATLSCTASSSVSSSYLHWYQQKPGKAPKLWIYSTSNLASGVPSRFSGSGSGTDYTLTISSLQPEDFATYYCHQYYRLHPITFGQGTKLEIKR", "M⁻¹ s⁻¹", 544000),
    ("C1_IPN92H0279-SG4GK/IPN93L0091-SK1 (antibody, human IgG4 S228P, kappa, name in Kabat numbering, V domains shown, Substitutions from IPN009VH2 / IPN009VK3, Kabat numbering; also called IPN92H0279/IPN93L0091) VH: EVMLVESGGGLVKPGGSLRLSCAASGFTFSNYAMSWVRQAPGKGLEWVATISSGGSHTYELDSVKERFTISRDNSKDTLYLQMNSLRAEDTALYYCARLFTKHAMDYWGQGTLVTVSS VL: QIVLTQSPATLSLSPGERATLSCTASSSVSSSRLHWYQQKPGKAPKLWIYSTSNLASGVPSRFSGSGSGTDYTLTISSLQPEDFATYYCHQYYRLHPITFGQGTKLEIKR", "M⁻¹ s⁻¹", "1.18e+06"),
]

# context switch: different binder, same kon
kon measured on C1_IPN92H0194-SG4GK/IPN93L0024-SK1 (antibody, human IgG4 S228P, kappa, name in Kabat numbering, V domains shown, Substitutions from IPN009VH2, Kabat numbering; also called IPN92H0194/IPN93L0024) VH: EVMLVESGGGLVKPGGSLRLSCAASGFTFSNYAMSWVRQAPGKGLEWVATISSGGSHTYYLDSVKERFTISRDNSKDTLYLQMNSLRAEDTALYYCARLFTGHAMDYWGQGTLVTVSS VL: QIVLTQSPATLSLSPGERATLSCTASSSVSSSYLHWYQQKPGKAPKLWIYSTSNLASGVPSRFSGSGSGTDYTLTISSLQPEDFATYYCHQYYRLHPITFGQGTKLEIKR = 802000
